Listed below: PBM binding z-score values for each entry.
system: LXRb homodimer (NR concentration 270 nM); assay: PBM binding z-score (relative to random genomic background probes); higher = stronger binding; sequences stand for … in GC…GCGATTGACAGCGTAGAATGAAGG
observable: PBM binding z-score

{"record.sequence": "TCATATAGGTAAACAGGTGAACGTCCGTAAGTTA", "recorded.measurement": -0.0806}
{"record.sequence": "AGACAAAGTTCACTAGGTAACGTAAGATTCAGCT", "recorded.measurement": 1.08}
{"record.sequence": "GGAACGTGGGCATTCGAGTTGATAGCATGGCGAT", "recorded.measurement": -1.01}
{"record.sequence": "AGTCAAAGTTCATCTATGTAACGTAAGATATGCT", "recorded.measurement": 1.69}
{"record.sequence": "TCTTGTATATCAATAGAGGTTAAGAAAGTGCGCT", "recorded.measurement": 0.472}
{"record.sequence": "CCTACTGGGCCACGAAAGGTCTTTGATTCAGTGA", "recorded.measurement": -1.08}
{"record.sequence": "ATCTGTAGGTAAAAGTTCAGTGAATCCCGAGGAT", "recorded.measurement": 0.43}
{"record.sequence": "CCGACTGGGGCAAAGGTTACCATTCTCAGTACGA", "recorded.measurement": -0.949}
{"record.sequence": "CATTACGGGTCACGAGGTTATAGCACGACGAGCG", "recorded.measurement": 1}
{"record.sequence": "ACTAGTTCGTCAGCTGAGGTCACACACAATTCGG", "recorded.measurement": 0.796}
{"record.sequence": "CCGACTGGGGCAAGGTAACCATAACGCACAGCCA", "recorded.measurement": -0.817}
{"record.sequence": "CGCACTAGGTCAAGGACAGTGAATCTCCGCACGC", "recorded.measurement": 0.1}

* * *

test system: LXRa homodimer (NR concentration 270 nM); assay: PBM binding z-score (relative to random genomic background probes); higher = stronger binding; sequences stand for … in GC…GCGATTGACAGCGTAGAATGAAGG
Answer Not met if PBM binding z-score is under -0.2, and Met if it is -0.2 or more.

{"record.sequence": "CAAACTAGGTCACCCGAAGGTCAAAGTCCGCATG", "target.of.assay": "LXRa homodimer (NR concentration 270 nM)", "assigned.category": "Met"}
{"record.sequence": "CCTACTGGGCCATCAGGTAATTGATATCAACGTT", "target.of.assay": "LXRa homodimer (NR concentration 270 nM)", "assigned.category": "Met"}
{"record.sequence": "CCTACTGGGCCATTCAGAAGTCATTGATCATATG", "target.of.assay": "LXRa homodimer (NR concentration 270 nM)", "assigned.category": "Met"}
{"record.sequence": "CCTCCAAGGTCAGCAGGTCAGTGAAAGCGACGTG", "target.of.assay": "LXRa homodimer (NR concentration 270 nM)", "assigned.category": "Met"}
{"record.sequence": "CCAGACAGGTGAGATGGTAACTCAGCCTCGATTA", "target.of.assay": "LXRa homodimer (NR concentration 270 nM)", "assigned.category": "Met"}
{"record.sequence": "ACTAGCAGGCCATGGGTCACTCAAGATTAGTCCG", "target.of.assay": "LXRa homodimer (NR concentration 270 nM)", "assigned.category": "Not met"}

* * *

tested on: LXRb:RXRa (NR concentration 270 nM, RXRa partner concentration 90 nM); assay: PBM binding z-score (relative to random genomic background probes); higher = stronger binding; sequences stand for … in GC…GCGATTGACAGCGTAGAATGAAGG

{"record.sequence": "GCTAGTTGGTCAGTAAACGGTCACACACCGGTCG", "PBM binding z-score": -0.139}
{"record.sequence": "CGTCCAATGTCAGCAGGTCAGTGAAAGCGACGTG", "PBM binding z-score": 0.392}
{"record.sequence": "CGTCCAAGGTCAATACTAGGTCAGTGAAAGCATT", "PBM binding z-score": 4.71}
{"record.sequence": "AGAATGAGGTTAAGCTCAGGGAAACAGAATACAT", "PBM binding z-score": 1.79}
{"record.sequence": "GAATATAGGTAATACAAGGTGAAAGTCCGATTGT", "PBM binding z-score": 1.01}
{"record.sequence": "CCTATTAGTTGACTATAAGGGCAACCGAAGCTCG", "PBM binding z-score": 0.294}
{"record.sequence": "CGAACTAGGTAATCCAGGACAGTGAATACATTGA", "PBM binding z-score": -0.349}
{"record.sequence": "GCTAGTTGGTCAGTAAAAGGTCACACAACGGTCG", "PBM binding z-score": 4.15}
{"record.sequence": "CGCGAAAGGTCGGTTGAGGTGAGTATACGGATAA", "PBM binding z-score": 1.38}
{"record.sequence": "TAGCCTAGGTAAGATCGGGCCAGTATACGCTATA", "PBM binding z-score": -0.831}
{"record.sequence": "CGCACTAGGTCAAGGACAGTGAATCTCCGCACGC", "PBM binding z-score": 1.46}
{"record.sequence": "ACTAACAGGCCAAGTTTGGGTCACTCAAACAAAG", "PBM binding z-score": 0.977}

* * *

tested on: PPARg DBDmut IVT, anti-PPARg (DBD mutation: PPARg1 K132A/R137A, NR concentration 270 nM); experiment: PBM binding z-score (relative to random genomic background probes); higher = stronger binding; sequences stand for … in GC…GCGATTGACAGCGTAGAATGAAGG
Quick rule: PBM binding z-score of at least 0.4 means 1.0, below that means 0.0.

{"record.sequence": "AGACTGAGGTTATACGTAGATCAGGGAAGAAAGT", "assigned.category": 0.0}
{"record.sequence": "CCTAGCAGGCCAATCTGGGTCACTCATGGCTTGA", "assigned.category": 0.0}
{"record.sequence": "CAAACTAGGTCAAAGTCAAAGTCGGTTTGTGCCA", "assigned.category": 1.0}
{"record.sequence": "TAGCCTAGGTCAGATCGGGCCAATATACGCTATA", "assigned.category": 0.0}
{"record.sequence": "CGAACTAGATCAGAACAGGACAGTGAAGGATGAT", "assigned.category": 0.0}
{"record.sequence": "ACTAGCAGGCCAAGTTTGGGTCACCCAAACAAAG", "assigned.category": 0.0}
{"record.sequence": "AATACAGGGTCACTAGGCCAGAGTAGGTACGAAT", "assigned.category": 1.0}
{"record.sequence": "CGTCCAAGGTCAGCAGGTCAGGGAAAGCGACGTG", "assigned.category": 0.0}
{"record.sequence": "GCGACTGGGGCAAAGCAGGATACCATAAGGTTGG", "assigned.category": 0.0}
{"record.sequence": "GCTAGCAGGACATTTGGGTCACTCAATGACGGGC", "assigned.category": 0.0}
{"record.sequence": "CCTTACGGGTCACTGACAAGTTATAGCATTTGGA", "assigned.category": 1.0}
{"record.sequence": "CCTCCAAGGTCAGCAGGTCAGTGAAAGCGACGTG", "assigned.category": 0.0}
{"record.sequence": "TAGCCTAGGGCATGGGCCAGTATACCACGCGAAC", "assigned.category": 0.0}
{"record.sequence": "CCTTACTGGTCACGAGGTTATAGCACGACGAGCG", "assigned.category": 0.0}
{"record.sequence": "CGACAAAGTTCAAGGTAACGTAACAGAAAGCAGC", "assigned.category": 1.0}
{"record.sequence": "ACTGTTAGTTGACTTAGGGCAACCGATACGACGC", "assigned.category": 1.0}
{"record.sequence": "TCATATAGGTAAAAGGTGAAAGTAGGTGTGGTAA", "assigned.category": 1.0}
{"record.sequence": "CAAACTAGGTCAACGTCAAAGTCGGTTTGTGCCA", "assigned.category": 1.0}
{"record.sequence": "ATATGTAGGTTAGCTGGGGTCATTCATACTAGGC", "assigned.category": 1.0}
{"record.sequence": "AGTCAAAGTGCACTAGGTAACGTAAGATTCAGCT", "assigned.category": 0.0}
{"record.sequence": "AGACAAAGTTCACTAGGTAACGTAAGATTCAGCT", "assigned.category": 1.0}
{"record.sequence": "CCTACTTGGCCATCAGGTCATTGATATCAACGTT", "assigned.category": 1.0}
{"record.sequence": "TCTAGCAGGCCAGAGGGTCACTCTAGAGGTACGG", "assigned.category": 0.0}
{"record.sequence": "GCGACTGGGGCATCAGCAGGTTACCAGAACTTAA", "assigned.category": 0.0}
{"record.sequence": "CCTACTGGGCCATCAGGGCATTGATATCAACGTT", "assigned.category": 1.0}
{"record.sequence": "ATCTCTAGATAAGACTCAGTTCAGTGAAGAACGC", "assigned.category": 1.0}
{"record.sequence": "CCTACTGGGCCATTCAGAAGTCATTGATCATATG", "assigned.category": 0.0}
{"record.sequence": "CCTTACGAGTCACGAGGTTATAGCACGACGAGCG", "assigned.category": 0.0}
{"record.sequence": "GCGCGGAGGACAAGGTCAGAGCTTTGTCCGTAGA", "assigned.category": 0.0}
{"record.sequence": "CCTGACGGGTCAAGGTTATAGCACGGGTGGTACG", "assigned.category": 0.0}
{"record.sequence": "CAGCCTAGGTCAGGTCCAGTATAGGAGGAACGTT", "assigned.category": 0.0}
{"record.sequence": "TAGCCTAGTTCATGGGCCAGTATACCACGCGAAC", "assigned.category": 0.0}
{"record.sequence": "TCTTGTAAATCAACAGGAGGTTAAGAAAGATCGA", "assigned.category": 0.0}
{"record.sequence": "ACTATTAGTAGAGACGAGGGCAACCGATAGGTTG", "assigned.category": 0.0}
{"record.sequence": "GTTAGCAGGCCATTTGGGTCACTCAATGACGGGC", "assigned.category": 0.0}
{"record.sequence": "GCATATAGGTAATACAATGTGAAAGTCCGATTGT", "assigned.category": 1.0}
{"record.sequence": "TCTAGCAGGCCAGAGGGTCACTTAAGAGGTACGG", "assigned.category": 0.0}
{"record.sequence": "CCTTACGGGTCACTGACGGGTTATAGCATTTGGA", "assigned.category": 0.0}
{"record.sequence": "TCTCGTAGATCAATAGAGGTTAAGAAAGTGCGCT", "assigned.category": 0.0}
{"record.sequence": "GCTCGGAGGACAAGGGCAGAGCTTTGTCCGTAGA", "assigned.category": 0.0}
{"record.sequence": "CCGACTAGGGCAGAAAGGTTACCATACCATCCGG", "assigned.category": 0.0}
{"record.sequence": "CCGACTGGGGCAGAAAGGTTACTATACCATCCGG", "assigned.category": 0.0}
{"record.sequence": "CCTCGGAGGACCGAAGGTCAGAGCTGTCCGCTTT", "assigned.category": 0.0}
{"record.sequence": "ATCTCTAGGGAAAGATAGTTCAGTGAATGCAAAT", "assigned.category": 0.0}
{"record.sequence": "CGTCCAAGGTCAGAGAGGTCCGTGAATGCCGAGT", "assigned.category": 0.0}
{"record.sequence": "CGTCCTAGGTCAGCAGGTCAGTGAAAGCGACGTG", "assigned.category": 0.0}
{"record.sequence": "CGAACTAGGTCAAGGACAGTTAATCTCCGCACGC", "assigned.category": 1.0}
{"record.sequence": "CTTGCTAGGTCATGGTCAGCTAATCTACAGTATG", "assigned.category": 1.0}
{"record.sequence": "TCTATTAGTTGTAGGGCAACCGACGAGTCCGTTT", "assigned.category": 1.0}
{"record.sequence": "AGAACGAGGGCACGTTGAGTTGATAGCAGAGTAG", "assigned.category": 0.0}
